Where do the numbers come from? From paper PMC5358875.

Reported IC50 values are given for each entry in this list.
Biological target: T1, TNKS2 ARC4 (488–649) (human, UniProt Q9H2K2 488-649)
T1 sequence (looked up): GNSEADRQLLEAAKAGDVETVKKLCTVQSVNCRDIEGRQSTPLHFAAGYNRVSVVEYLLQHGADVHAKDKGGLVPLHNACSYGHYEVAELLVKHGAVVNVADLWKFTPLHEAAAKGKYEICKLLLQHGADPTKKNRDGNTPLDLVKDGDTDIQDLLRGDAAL
Experiment: pull-down; GST-Axin1 1–80 on glutathione beads incubated with TNKS2 ARC4 (89 μM), washed, then incubated 0.5 h at room temperature with unlabeled peptide (0–200 μM); wash buffer 50 mM Tris·HCl pH 8.0, 500 mM NaCl, 2 mM DTT; SDS-PAGE, Coomassie, densitometry
Conditions: both partners purified
Bridge positions count the residues as written; N and C are the ends. Square brackets hold non-standard residues; d marks the D form. Ends that are not written are not given here. Aha = [N-]=[N+]=NCC[C@H](N)C(=O)O; m3 = not defined here

binder | IC50
Ac-RE[Aha]GDG[Aha]E (triazole 3-7 via m3; reading uncertain) [cp4n2m3] | ~20 µM

The record that follows has no IC50 shown yet.
Query :: Query (binder): Ac-REAGDGEE [pep1] ; field requested: IC50
Result :: ~40 µM
